# tested-target: Human HER3, endogenous, on human cancer cell lines (human, UniProt P21860 20-1342)
# measurement-protocol: cell-based or functional assay
Task for the reader: assign each of the following binders its reported SK-Br-3 pHER3 IC50.
Numbers only, in pM.

Below, each entry is followed by its recorded SK-Br-3 pHER3 IC50 result.
| binder | recorded-number |
| --- | --- |
| MOR10701 (antibody, human IgG1, kappa, V domains shown, tested as IgG) VH: EVQLLESGGGLVQPGGSLRLSCAASGFTFSSYAMSWVRQAPGKGLEWVSVTGAVGRSTYYPDSVKGRFTISRDNSKNTLYLQMNSLRAEDTAVYYCARWGDEGFDIWGQGTLVTVSS VL: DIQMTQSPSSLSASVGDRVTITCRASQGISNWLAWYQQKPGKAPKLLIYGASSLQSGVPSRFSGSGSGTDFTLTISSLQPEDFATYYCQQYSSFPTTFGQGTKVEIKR | 370 |
| MOR10703 (antibody, human IgG1, kappa, V domains shown, tested as IgG) VH: EVQLLESGGGLVQPGGSLRLSCAASGFTFSSYAMSWVRQAPGKGLEWVSAINSQGKSTYYADSVKGRFTISRDNSKNTLYLQMNSLRAEDTAVYYCARWGDEGFDIWGQGTLVTVSS VL: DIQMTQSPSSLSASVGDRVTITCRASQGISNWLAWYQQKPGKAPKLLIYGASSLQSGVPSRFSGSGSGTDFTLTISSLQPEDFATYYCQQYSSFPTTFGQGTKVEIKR | 167 |

Now take the following binder into account.
What value of SK-Br-3 pHER3 IC50 has been recorded for this entry: MOR12610 (antibody, human IgG1, kappa, V domains shown, tested as IgG) VH: QVQLVESGGGLVQPGGSLRLSCAASGFTFSSYAMSWVRQAPGKGLEWVSGTGPYGGTYYPDSVKGRFTISRDNSKNTLYLQMNSLRAEDTAVYYCARWGDEGFDIWGQGTLVTVSS VL: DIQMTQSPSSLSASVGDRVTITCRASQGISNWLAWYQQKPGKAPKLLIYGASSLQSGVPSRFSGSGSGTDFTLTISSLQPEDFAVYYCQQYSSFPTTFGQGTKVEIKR
192
